Target: human Cot/Tpl2 kinase (Homo sapiens, UniProt P41279)
Construct: human Cot/Tpl2 kinase construct encoding residues 30-398; 6His (N); made in house; host or cells: Sf9 insect cells, baculovirus system (BD Biosciences)
Sequence (P41279 30-398): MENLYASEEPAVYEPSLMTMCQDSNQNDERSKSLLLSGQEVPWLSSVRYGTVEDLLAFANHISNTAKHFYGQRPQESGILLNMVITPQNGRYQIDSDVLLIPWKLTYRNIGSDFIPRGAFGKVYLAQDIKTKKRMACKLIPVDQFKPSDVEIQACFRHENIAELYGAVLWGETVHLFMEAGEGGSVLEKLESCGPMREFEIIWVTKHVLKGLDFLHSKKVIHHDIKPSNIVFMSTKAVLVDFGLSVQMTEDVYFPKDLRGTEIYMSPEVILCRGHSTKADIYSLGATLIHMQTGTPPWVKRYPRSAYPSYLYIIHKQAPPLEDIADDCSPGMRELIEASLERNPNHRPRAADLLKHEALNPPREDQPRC
Assay: Tpl2/Cot kinase assay: GST-MEK1 phosphorylation detected by ELISA (DELFIA Eu)
Type: biochemical
Conditions: Table 2; Tpl2/Cot kinase, GST-MEK1 substrate, 50 uM ATP

{"molecule": "CC(=O)N1CCC(n2cc(CNc3cc(Br)c4ncc(C#N)c(Nc5ccc(F)c(Cl)c5)c4c3)nn2)CC1 [Example 547]", "subject of test": "human Cot/Tpl2 kinase (Homo sapiens, UniProt P41279)", "prefix operator": "=", "IC50 (nM)": 6.1}
{"molecule": "CCCc1[nH]cnc1CNc1cc(Cl)c2ncc(C#N)c(Nc3ccc(F)c(Cl)c3)c2c1 [Example 443]", "subject of test": "human Cot/Tpl2 kinase (Homo sapiens, UniProt P41279)", "prefix operator": "=", "IC50 (nM)": 25}
{"molecule": "COc1cc(NCc2cccnc2)cc2c(Nc3ccc(C)c(O)c3)c(C#N)cnc12 [Example 386]", "subject of test": "human Cot/Tpl2 kinase (Homo sapiens, UniProt P41279)", "prefix operator": ">", "IC50 (nM)": 40000}
{"molecule": "CN(C)C(=O)c1cc([N+](=O)[O-])cc2c(Nc3ccc(F)c(Cl)c3)c(C#N)cnc12 [Example 395]", "subject of test": "human Cot/Tpl2 kinase (Homo sapiens, UniProt P41279)", "prefix operator": ">", "IC50 (nM)": 40000}
{"molecule": "N#Cc1cccc(CNc2ccc3ncc(C#N)c(NC4CCCC4)c3c2)c1 [Example 420]", "subject of test": "human Cot/Tpl2 kinase (Homo sapiens, UniProt P41279)", "prefix operator": "=", "IC50 (nM)": 2200}
{"molecule": "N#Cc1cnc2c(Cl)cc(NCc3cccc(O)c3O)cc2c1Nc1ccc(F)c(Cl)c1 [Example 458]", "subject of test": "human Cot/Tpl2 kinase (Homo sapiens, UniProt P41279)", "prefix operator": "=", "IC50 (nM)": 1300}
{"molecule": "N#Cc1cnc2c(Br)cc(NCc3cnn(-c4ccccc4)n3)cc2c1Nc1ccc(F)c(Cl)c1 [Example 434]", "subject of test": "human Cot/Tpl2 kinase (Homo sapiens, UniProt P41279)", "prefix operator": ">", "IC50 (nM)": 40000}
{"molecule": "N#Cc1cnc2c(Cl)cc(N)cc2c1Nc1ccc(F)c(Cl)c1 [Example 409]", "subject of test": "human Cot/Tpl2 kinase (Homo sapiens, UniProt P41279)", "prefix operator": "=", "IC50 (nM)": 920}
{"molecule": "N#Cc1cnc2c(Cl)cc(NCc3cn(C4CCOCC4)nn3)cc2c1Nc1ccc(F)c(Cl)c1 [Example 570]", "subject of test": "human Cot/Tpl2 kinase (Homo sapiens, UniProt P41279)", "prefix operator": "=", "IC50 (nM)": 14}
{"molecule": "CN1CC(CCn2cc(CNc3cc(Cl)c4ncc(C#N)c(Nc5ccc(F)c(Cl)c5)c4c3)nn2)N(C)C1=O (centres unmarked) [Example 615]", "subject of test": "human Cot/Tpl2 kinase (Homo sapiens, UniProt P41279)", "prefix operator": "=", "IC50 (nM)": 6.1}
{"molecule": "N#Cc1cnc2c(Br)cc(NCCN3CCOCC3)cc2c1Nc1cccc(Cl)c1 [Example 372]", "subject of test": "human Cot/Tpl2 kinase (Homo sapiens, UniProt P41279)", "prefix operator": "=", "IC50 (nM)": 420}
{"molecule": "CC(C)(C)OC(=O)N1CCC(n2cc(CNc3cc(Br)c4ncc(C#N)c(Nc5ccc(F)c(Cl)c5)c4c3)nn2)CC1 [Example 493]", "subject of test": "human Cot/Tpl2 kinase (Homo sapiens, UniProt P41279)", "prefix operator": "=", "IC50 (nM)": 250}
{"molecule": "N#Cc1cnc2c(Br)cc(NCc3cnc4cnccn34)cc2c1Nc1ccc(F)c(Cl)c1 [Example 528]", "subject of test": "human Cot/Tpl2 kinase (Homo sapiens, UniProt P41279)", "prefix operator": "=", "IC50 (nM)": 110}
{"molecule": "N#Cc1cnc2c(Br)cc(NCC(=O)O)cc2c1Nc1ccc(F)c(Cl)c1 [Example 630]", "subject of test": "human Cot/Tpl2 kinase (Homo sapiens, UniProt P41279)", "prefix operator": "=", "IC50 (nM)": 140}
{"molecule": "CN(Cc1cn(C)cn1)c1cc(Br)c2ncc(C#N)c(Nc3ccc(F)c(Cl)c3)c2c1 [Example 611]", "subject of test": "human Cot/Tpl2 kinase (Homo sapiens, UniProt P41279)", "prefix operator": ">", "IC50 (nM)": 3000}
{"molecule": "N#Cc1cnc2c(Cl)cc(NCc3cn(CCN4CCCC4)nn3)cc2c1Nc1ccc(F)c(Cl)c1 [Example 515]", "subject of test": "human Cot/Tpl2 kinase (Homo sapiens, UniProt P41279)", "prefix operator": "=", "IC50 (nM)": 40}
{"molecule": "COc1ccc(CNc2ccc3ncc(C#N)c(Nc4ccc(F)c(F)c4)c3c2)cn1 [Example 340]", "subject of test": "human Cot/Tpl2 kinase (Homo sapiens, UniProt P41279)", "prefix operator": "=", "IC50 (nM)": 440}
{"molecule": "CC(C)(C)OC(=O)N1CCN(CCCn2cc(CNc3cc(Br)c4ncc(C#N)c(Nc5ccc(F)c(Cl)c5)c4c3)nn2)CC1 [Example 591]", "subject of test": "human Cot/Tpl2 kinase (Homo sapiens, UniProt P41279)", "prefix operator": "=", "IC50 (nM)": 1300}
{"molecule": "N#Cc1cnc2c(Cl)cc(NCc3cn(Cc4ccccn4)cn3)cc2c1Nc1ccc(F)c(Cl)c1 [Example 621]", "subject of test": "human Cot/Tpl2 kinase (Homo sapiens, UniProt P41279)", "prefix operator": "=", "IC50 (nM)": 41}
{"molecule": "CN(C)Cc1cc(NCCN2CCOCC2)cc2c(Nc3cccc(Br)c3)c(C#N)cnc12 [Example 387]", "subject of test": "human Cot/Tpl2 kinase (Homo sapiens, UniProt P41279)", "prefix operator": ">", "IC50 (nM)": 40000}
{"molecule": "CCN1CCC(CCn2cc(CNc3cc(Br)c4ncc(C#N)c(Nc5ccc(F)c(Cl)c5)c4c3)nn2)CC1 [Example 568]", "subject of test": "human Cot/Tpl2 kinase (Homo sapiens, UniProt P41279)", "prefix operator": "=", "IC50 (nM)": 64}
{"molecule": "N#Cc1cnc2c(Cl)cc(NCc3cn(Cc4ccncc4)cn3)cc2c1Nc1ccc(F)c(Cl)c1 [Example 622]", "subject of test": "human Cot/Tpl2 kinase (Homo sapiens, UniProt P41279)", "prefix operator": "=", "IC50 (nM)": 5.3}
{"molecule": "N#Cc1cnc2c(Br)cc(NCc3cn(CCO)nn3)cc2c1Nc1ccc(F)c(Cl)c1 [Example 510]", "subject of test": "human Cot/Tpl2 kinase (Homo sapiens, UniProt P41279)", "prefix operator": "=", "IC50 (nM)": 28}
{"molecule": "Cn1nc(C(C)(C)C)cc1Nc1c(C#N)cnc2ccc(N)cc12 [Example 425]", "subject of test": "human Cot/Tpl2 kinase (Homo sapiens, UniProt P41279)", "prefix operator": ">", "IC50 (nM)": 40000}
{"molecule": "CN(C)C(=O)c1cc(N)cc2c(Nc3ccc(F)c(Cl)c3)c(C#N)cnc12 [Example 396]", "subject of test": "human Cot/Tpl2 kinase (Homo sapiens, UniProt P41279)", "prefix operator": "=", "IC50 (nM)": 6000}
{"molecule": "N#Cc1cnc2c(Br)cc(NCc3cn(CCC4CCNCC4)nn3)cc2c1Nc1ccc(F)c(Cl)c1 [Example 517]", "subject of test": "human Cot/Tpl2 kinase (Homo sapiens, UniProt P41279)", "prefix operator": "=", "IC50 (nM)": 90}
{"molecule": "N#Cc1cnc2ccc(N)cc2c1NC1CCCC1 [Example 402]", "subject of test": "human Cot/Tpl2 kinase (Homo sapiens, UniProt P41279)", "prefix operator": ">", "IC50 (nM)": 40000}
{"molecule": "CC(C)(C)OC(=O)N1CCCC(Cn2cc(CNc3cc(Cl)c4ncc(C#N)c(Nc5ccc(F)c(Cl)c5)c4c3)nn2)C1 (centres unmarked) [Example 541]", "subject of test": "human Cot/Tpl2 kinase (Homo sapiens, UniProt P41279)", "prefix operator": "=", "IC50 (nM)": 250}
{"molecule": "CN(C)C(=O)OCCCn1cc(CNc2cc(Cl)c3ncc(C#N)c(Nc4ccc(F)c(Cl)c4)c3c2)nn1 [Example 582]", "subject of test": "human Cot/Tpl2 kinase (Homo sapiens, UniProt P41279)", "prefix operator": "=", "IC50 (nM)": 16}
{"molecule": "CC(C)(C)Nc1c(C#N)cnc2ccc(NCc3cccc(C#N)c3)cc12 [Example 403]", "subject of test": "human Cot/Tpl2 kinase (Homo sapiens, UniProt P41279)", "prefix operator": "=", "IC50 (nM)": 11500}
{"molecule": "N#Cc1cnc2c(Br)cc(NCc3cn(Cc4ccccn4)cn3)cc2c1Nc1ccc(F)c(Cl)c1 [Example 620]", "subject of test": "human Cot/Tpl2 kinase (Homo sapiens, UniProt P41279)", "prefix operator": "=", "IC50 (nM)": 34}
{"molecule": "N#Cc1cnc2c(Br)cc(NCc3cn(CCN4CCOCC4)cn3)cc2c1Nc1ccc(F)c(Cl)c1 [Example 488]", "subject of test": "human Cot/Tpl2 kinase (Homo sapiens, UniProt P41279)", "prefix operator": "=", "IC50 (nM)": 41}
